This collection of values is drawn from patent US20210332115A1.

The following binders are shown together with reported Relative KD values.
molecular target: T1, Homo sapiens factor Bb protein (human, UniProt P00751 260-764); experiment: SPR single cycle kinetics; ratio against VH0/Vκ0
T1 construct: Bought from CompTech (A155); also called complement factor Bb; human factor Bb
T1 sequence (P00751 260-764 limits assumed): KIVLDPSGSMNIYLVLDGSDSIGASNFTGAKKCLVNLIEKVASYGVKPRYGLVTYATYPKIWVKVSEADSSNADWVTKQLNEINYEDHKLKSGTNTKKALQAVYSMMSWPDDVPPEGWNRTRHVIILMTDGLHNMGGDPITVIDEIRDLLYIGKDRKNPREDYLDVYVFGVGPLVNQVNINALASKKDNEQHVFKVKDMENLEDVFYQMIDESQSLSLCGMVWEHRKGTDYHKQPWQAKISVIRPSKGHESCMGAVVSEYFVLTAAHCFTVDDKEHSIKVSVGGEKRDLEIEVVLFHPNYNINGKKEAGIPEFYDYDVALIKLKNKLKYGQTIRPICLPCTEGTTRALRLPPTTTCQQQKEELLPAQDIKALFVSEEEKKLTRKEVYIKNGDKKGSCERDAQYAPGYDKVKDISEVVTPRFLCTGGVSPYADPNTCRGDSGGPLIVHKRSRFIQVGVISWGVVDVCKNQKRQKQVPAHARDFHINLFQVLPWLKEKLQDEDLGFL

Before answering, review these 3 worked examples.
Inquiry: Suppose we examine the binder VH2/Vκ4 (antibody, V domains shown) VH: EVQLVESGGGLVKPGGSLRLSCAASGFTFSNYAMSWVRQAPGKGLEWVATISNRGSYTYYPDSVKGRFTISRDNAKNSLYLQMNSLRAEDTALYYCARERPMDYWGQGTLVTVSS VL: DIQMTQSPSTLSASVGDRVTITCRASQDVGTAVAWYQQKPGQPPKLLIYWASTRHTGVPDRFSGSGSGTDFTLTISSLQAEDFAVYYCHQHSSNPLTFGQGTKLEIK ; what Relative KD value has been reported?
Reply text: 6.19

Inquiry: Field request: Relative KD | item: VH3/Vκ1 (antibody, V domains shown) VH: EVQLVESGGGLVKPGGSLRLSCAASGFTFSNYAMSWVRQAPGKGLEWVATISNRGSYTYYADSVKGRFTISRDNAKNSLYLQMNSLRAEDTALYYCARERPMDYWGQGTLVTVSS VL: DIVMTQSPSFLSASVGDRVTITCKASQDVGTAVAWYQQKPGQPPKLLIYWASTRHTGVPDRFTGSGSGTDFTLTISSLQSEDFAVYFCHQHSSNPLTFGQGTKLEIK
Reply text: 7.9

Inquiry: Query (binder): VH3/Vκ3 (antibody, V domains shown) VH: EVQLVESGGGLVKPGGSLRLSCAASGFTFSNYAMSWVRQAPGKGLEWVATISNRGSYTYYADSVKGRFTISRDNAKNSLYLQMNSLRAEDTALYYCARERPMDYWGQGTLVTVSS VL: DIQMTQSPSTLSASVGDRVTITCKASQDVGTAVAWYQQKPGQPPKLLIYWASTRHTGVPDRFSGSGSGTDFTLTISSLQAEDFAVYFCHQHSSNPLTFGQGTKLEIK ; field requested: Relative KD
Reply text: 8.47

Here's the next entry for you.
Inquiry: Any idea what Relative KD was measured for VH1/Vκ5 (antibody, V domains shown) VH: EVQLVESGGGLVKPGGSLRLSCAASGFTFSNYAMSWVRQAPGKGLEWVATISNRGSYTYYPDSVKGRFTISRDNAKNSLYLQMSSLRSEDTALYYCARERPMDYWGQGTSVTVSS VL: DIQMTQSPSTLSASVGDRVTITCRASQDVGTAVAWYQQKPGQPPKLLIYWASTRHTGVPDRFSGSGSGTDFTLTISSLQAEDFATYYCHQHSSNPLTFGQGTKLEIK ?
Reply text: 5.09
